tested on: AsPC-1 cells; experiment: Cancer cell death verification (MTT cell viability); format: cell-based; conditions: Homo sapiens, ASPC1, 24 h, read-out: half-lethal dose (concentration at which about half of the cells were killed)
pIC50: −log10 of the molar value.
quantityMeasured: pIC50

molecule="Nc1ncnc2c1ncn2[C@@H]1O[C@H](COP(=O)(O)OP(=O)(O)OC[C@H]2O[C@@H](O)C(O)C2O)C(O)C1O (stereo partly shown) [ADP-ribose, adenosine diphosphate ribose]" resultvalue=~5.70

* * *

system: HCT116 cells; assay: Cancer cell death verification (MTT cell viability); type: cell-based; details: Homo sapiens, HCT-116, 24 h, read-out: half-lethal dose (concentration at which about half of the cells were killed)
pIC50: −log10 of the molar value.
quantityMeasured: pIC50

compound="Nc1ncnc2c1ncn2[C@@H]1O[C@H](COP(=O)(O)OP(=O)(O)OC[C@H]2O[C@@H](O)C(O)C2O)C(O)C1O (stereo partly shown) [ADP-ribose, adenosine diphosphate ribose]" resultvalue=~5.10

Ref: patent US20230372382A1
